MEASUREMENT DESCRIPTION: NCI Yeast Anticancer Drug Screen. Data for the bub3 strain (AID 167)
CONDITION LABEL: S. cerevisiae bub3 mutant strain, active compounds read high; at 50.0 µM unless noted
Compounds without any hit were thinned out: in the full panel of roughly 79,000, 15% have a hit. Activity calls are given as the source filed them. Rule as the data show it: active = growth inhibition above about 70%; inactive = the rest.
Please go through the items and note down their growth inhibition.

growth inhibition reported for this compound Cc1ccc(C)n1-n1c(Cc2ccccc2)n[nH]c1=O : -31.8% (inactive)

Looking up Cc1nc2ccccc2c2ccc([N+](=O)[O-])cc12 , I see its growth inhibition listed as -4.6% (inactive)

get_value(item= CCOC(=O)/C(C)=C\C=C(\C)CCC=C(C)C , readout=growth inhibition) returns -15.2% (inactive)

Sample NC(=O)Nc1ccc(/C=C\c2ccnc3ccccc23)cc1 ; growth inhibition observed: -15.9% (inactive)

Per the records, this compound ( CN(C)P1(=O)N(c2ccccc2)P(=O)(N(C)C)N1c1ccccc1 (centres undefined) ) has growth inhibition equal to -19.4% (inactive)

The compound Cn1c2cccc3nnc4cccc(c4c32)n1C showed growth inhibition equal to -6.65% (inactive)

Data point: CCCCCCOS(=O)(=O)c1ccc(C)cc1 ; growth inhibition = 6.7% (inactive)

Value of measured growth inhibition for the entry Cc1c(Cl)cccc1NC(=O)COc1ccc(Cl)cc1 : 6.5% (inactive)

Measured growth inhibition, COc1cc(CCC(NC(C)=O)c2cccc(O)c(=O)c2)cc(OC)c1OC (centres undefined) : -3.35% (inactive)

For this compound ( N#CCCCCCOCCOCCOCCOCCOCCCCCC#N ), measured growth inhibition is -1.75% (inactive)

// O=C(CCS(=O)(=O)CCC(=O)c1ccccc1)c1ccccc1 : growth inhibition value = -4.4% (inactive)

Quick note, growth inhibition for COc1ccc(-c2cc(-c3ccco3)c(C#N)c(=O)[nH]2)cc1 landed at 8.65% (inactive)

Record summary for CCCCCC(Br)C(Br)CC(Br)C(Br)CC(Br)C(Br)CCCCC(=O)O (centres undefined) : reported growth inhibition = -0.7% (inactive)

Field growth inhibition (entry CNc1ccc(C=C2C=CC=C2)cc1 ) reads 7.4% (inactive)

Measured growth inhibition, CC(=O)N1C(Nc2cnc3ccccc3c2)CCN1c1ccccc1 (centres undefined) : 1.25% (inactive)

Memo: CC(C)(CO)N=Cc1ccccc1O , reported growth inhibition: -13.3% (inactive)

So for O=C(N(O)c1ccccc1Cl)C(O)(c1ccccc1)c1ccccc1 , the logged growth inhibition turned out to be 31.4% (inactive)

The recorded growth inhibition for Cc1ccc(S(=O)(=O)OCC2C3C=CC(C4C=CC43)C2COS(=O)(=O)c2ccc(C)cc2)cc1 (centres undefined) is 11.8% (inactive)

NC(=O)N/N=C(\C(=O)C(=O)Nc1ccc(Cl)c(C(F)(F)F)c1)c1nc2ccc(C(=O)c3ccccc3)cc2[nH]c1=O has a reported growth inhibition of -3.35% (inactive)

Form field growth inhibition, entry N#CC1CCC[N-]C1.N#CC1CCC[N-]C1.[Cl][Pt+2][Cl] (centres undefined) : 4.3% (inactive)

The recorded growth inhibition for CNc1nc(=O)[nH]c(C)c1[N+](=O)[O-] is -4% (inactive)

growth inhibition recorded for this compound, Oc1cc2c(cc1C(Nc1ncccn1)c1ccc3c(c1)OCO3)OCO2 (centres undefined) , is 19.4% (inactive)

Short answer for O=c1[nH][nH]c2ccccc12 : growth inhibition was 8.9% (inactive)

Looking up CC1CC(OCCO)CC(C)(C)C1 (centres undefined) , I see its growth inhibition listed as 14.9% (inactive)

----------
MEASUREMENT DESCRIPTION: NCI Yeast Anticancer Drug Screen. Data for the sgs1 mgt1 strain (AID 161);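 also: 0% = growth of cultures given vehicle only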
CONDITION LABEL: S. cerevisiae sgs1 mgt1 strain, active compounds read high; at 50.0 µM unless noted
Compounds without any hit were thinned out: in the full panel of roughly 79,000, 15% have a hit.
REPORTED METRIC: growth inhibition (%)
A number alone suffices; assume %.

Given item C=C(C#N)CSc1c(Cl)c(Cl)c(Cl)c(Cl)c1Cl , the value recorded as its growth inhibition is 9.2

Query O=c1[nH]c(C(F)(F)F)c([N+](=O)[O-])c(=O)[nH]1 yields growth inhibition of 1.6

// growth inhibition value for c1ccc2nc3c(cc2c1)c1c(c2ccccc23)CCCC1 : 20.4

Item: CCOC(=O)NC(=O)c1cn(CCOCCOC(=O)NCCCCCCNC(=O)OCCOCCn2cc(C(=O)NC(=O)OCC)c(=O)[nH]c2=O)c(=O)[nH]c1=O | growth inhibition: 25.6

Lab book: growth inhibition of NCCCc1nonc1C(=O)O noted as -3.85

// sample C#CCN(N=O)C(=O)NCCCCC(NC(=O)OCc1ccccc1)C(=O)OCc1ccccc1 (stereo not given) , its growth inhibition was -26.6

For record COCCOC(=O)COc1ccccc1 the listed growth inhibition is 16.2

Input CCOC(=O)/C(F)=C/c1ccc(C#N)cc1 . Output growth inhibition: -4.25

Please fill in: growth inhibition reported for CC(C)NCC(O)COc1cccc2[nH]c3ccccc3c12 (stereo not given) = -8.5

So for O=[N+]([O-])c1ccc(S(=O)(=O)O)cc1 , the logged growth inhibition turned out to be 37.5

Memo: Cc1ccc(S(=O)(=O)C2CC(=O)N(c3ccc(F)c(Cl)c3)C2=O)cc1 (stereo not given) , reported growth inhibition: -7.6

# growth inhibition of OCCCNCc1ccccn1 = -20.4

Documented growth inhibition of Cc1ccc(NC(=O)C(=O)CC(=O)c2sc(Nc3c(C)cccc3C)nc2C)cc1C : 1.85

Reported growth inhibition for CCOC(=O)C(NC(=O)CC)(Nc1ccc(S(=O)(=O)Nc2nc(C)cc(C)n2)cc1)C(F)(F)F (stereo not given) was 8.55

Entry CC(=O)CC(=O)N1CCc2ccccc21 ; growth inhibition = 3.8

Memo: C/C=C\c1noc2c1C(=O)OC(C)C2 (stereo not given) , reported growth inhibition: 40.4

// CCOC(=O)C1=CC(C(=O)OCC)=C2C=CC=C3C=CC=C1N32 : growth inhibition value = 25.9

Query O=C(/C=C/c1ccc(OCC(=O)N2CCN(c3ccccc3)CC2)cc1)c1ccccc1 yields growth inhibition of 35.6

According to the records, this compound CNc1ccccc1C(=O)NCCCN displays growth inhibition of 5

Sample NC(=O)C1(N2CCCC2)CCN(Cc2ccccc2)CC1 ; growth inhibition observed: -17.6

The reported value for Cc1cc(Cl)ccc1OCC(=O)NCCO in terms of growth inhibition is 13.8

The compound listed as CC1(C)SC=C2C1=CSC2(C)C has a reported growth inhibition of -6.35

growth inhibition recorded for this compound, CNC(=S)NCOCCOC(C)=O , is 15.2

Entry CCOC(=O)c1ccc(NCc2ccc(CNc3ccc(C(=O)OCC)cc3)cc2)cc1 , growth inhibition reported as -36.2

Noted for Cc1[nH]c(=O)cc2c1[nH]c1ccccc12 : its growth inhibition reads -0.15

Lab note: COC(=O)C(CCSC)NC(=O)C1CSC(C)(C)N1C=O (stereo not given) gave growth inhibition of 39.2

Entry under test: c1ccc(Cc2cncc(Cc3ccccc3)c2)cc1 . Its growth inhibition was 6.85

Entry CCCCCCCCCCCCSC(=S)c1c(C)[nH]n(CCCCCCCCCCCC)c1=O — recorded growth inhibition = 42.3

Looking up C/C(CC1(O)C(=O)Nc2ccccc21)=N\O (stereo not given) , I see its growth inhibition listed as -30.6

In plain terms, Cc1cc(C)nc(NS(=O)(=O)c2ccc(NC(=O)NC(F)(F)F)cc2)n1 has a documented growth inhibition of -63

Form field growth inhibition, entry CN(CCO)CCCC1COc2ccccc2O1 (stereo not given) : -21.1

Memo: CN(C)c1ccc(/C=N/Nc2nc3ccccc3c(=O)n2-c2ccccc2)cc1 , reported growth inhibition: 6.55

// sample COc1ccc(C)cc1Sc1ccc([N+](=O)[O-])cc1C , its growth inhibition was -8.35

Lab note: measured growth inhibition of CCC(O)C(C)(C)[N+](=O)[O-] (stereo not given) was -2.6

Field growth inhibition (entry CC1(C)COC1(c1ccccc1)c1cccnc1 (stereo not given) ) reads -14.1

Looking up CCOC(=O)c1ccc(Cn2c(C)cc(=O)n(Cc3ccc(C(=O)OCC)cc3)c2=O)cc1 , I see its growth inhibition listed as -9.9

Per the record, CC1(C)OCC2OC3(c4nc(C#N)c(N)o4)OC(C)(C)OC3C2O1 (stereo not given) has growth inhibition of -48

Reported growth inhibition ( CC(NC(C#N)CC12CC3CC(CC(C3)C1)C2)c1ccccc1 (stereo not given) ) = -11.6

# growth inhibition of CC(N1CCS(=O)(=O)CC1)P(=O)(O)O (stereo not given) = 8.8

Documented growth inhibition of Nc1n[n+](-c2cccc([N+](=O)[O-])c2)no1 : 69.5

Lab note: C=C(Br)CNC(=O)CCC(=O)NCC(=C)Br gave growth inhibition of -3.35

According to the records, this compound Nc1ccc(Cc2cc([N+](=O)[O-])cc([N+](=O)[O-])c2)cc1 displays growth inhibition of 11.4

Cc1cc(=O)[nH]c(NN2C(Cl)C(=O)C2c2ccccc2O)n1 (stereo not given) has a reported growth inhibition of 13.3

Recorded growth inhibition (compound NNC(=O)c1nnn(CCc2ccccc2)c1C(=O)NN ): -1.15

Sample O=C(O)C(Nc1ccc(Cl)cc1)c1ccccc1 (stereo not given) ; growth inhibition observed: 18.9

# growth inhibition of COc1cccc(N)c1N = -3.6

Note to self: growth inhibition recorded for CCOc1ccc(OCC)c(NC=O)c1 was -6.75

So, CCOCCOC(=O)COc1ccccc1 ? Its growth inhibition was 17.6

For record CCC(C)C(O)C(C)C (stereo not given) the listed growth inhibition is -15.6

# compound O=C(O)CCC1NC(/C(=C/c2ccccc2O)NC(=O)c2ccccc2)OC1=O (stereo not given) ; its growth inhibition = -14.1
